tested on: BT-20; format: cell-based, human; settings: summary of Table 2 (BT-20, 3T3, HL-60)
parameter: Effect on UV-induced DNA fragmentation

- CC(=O)N[C@@H](CC(C)C)C(=O)N[C@@H](CC(C)C)C(=O)N[C@H](C=O)CCCNC(=N)N: inactive
- CC(C)CC(NC(=O)C1OC1C(=O)O)C(=O)NCCCCN=C(N)N (stereo not shown): inactive

* * *

system: U937 cells; assay: cells; type: cell-based, human; conditions: Homo sapiens, U-937, read-out: IC50 (Active Concentration), TNF and UV-light induced apoptosis
parameter: IC50 (nM)
Give a bare numeral; the unit nM is implied.

• CC(=O)NC(Cc1ccccc1)C(=O)Oc1ccc2ccccc2c1 (racemic) = 40000
• C[C@H](NC(=O)OCc1ccccc1)C(=O)N[C@@H](C)C(=O)NC(Cc1ccccc1)B(O)O (stereo partly drawn) = 1200

Please turn your attention to the following entry.
Answer with the recorded IC50 for the compound listed here: Cc1ccc(S(=O)(=O)N[C@@H](Cc2ccccc2)C(=O)CCl)cc1 2000
